# Test system: batrachotoxin (BTX) binding site of the sodium channel
# procedure-summary: Affinity to the batrachotoxin (BTX) binding site of the sodium channel
# experimental-parameters: rat cerebrocortex synaptosomes, [3H]-batrachotoxinin A20 α-benzoate 10 nM; test concentration not given
Label fulfilled when BTX Inhibition is strictly below 60; otherwise label not fulfilled.

| compound | class-label |
| --- | --- |
| O=C1C(Cc2ccccc2)NC2(CCN(S(=O)(=O)c3ccccc3)CC2)N1Cc1ccccc1F (stereo not drawn) [Example 71] | not fulfilled |
| CCCCN1C(=O)C(Cc2ccccc2)NC12CCN(S(=O)(=O)c1ccc(C(C)(C)CC)cc1)CC2 (stereo not drawn) [Example 28] | fulfilled |
| CCCCN1C(=O)C(CCSC)NC12CCN(C(=O)Nc1ccc(Cl)c(C(F)(F)F)c1)CC2 (stereo not drawn) [Example 227] | not fulfilled |
| CC(C)CC1NC2(CCN(C(=S)NCc3ccccc3)CC2)N(Cc2ccccc2C#N)C1=O (stereo not drawn) [Example 170] | fulfilled |
| COC(=O)c1ccc(CN2C(=O)C(C(C)C)NC23CCN(C(=S)NCC2CCCO2)CC3)cc1 (stereo not drawn) [Example 137] | fulfilled |

---

# test-target: 5-HT transporter (Rattus norvegicus, UniProt P31652)
# Construct: from tissue; host or cells: rat brain synaptosomes (marrow/medulla and pons), P2 fraction
# Sequence (P31652 whole entry): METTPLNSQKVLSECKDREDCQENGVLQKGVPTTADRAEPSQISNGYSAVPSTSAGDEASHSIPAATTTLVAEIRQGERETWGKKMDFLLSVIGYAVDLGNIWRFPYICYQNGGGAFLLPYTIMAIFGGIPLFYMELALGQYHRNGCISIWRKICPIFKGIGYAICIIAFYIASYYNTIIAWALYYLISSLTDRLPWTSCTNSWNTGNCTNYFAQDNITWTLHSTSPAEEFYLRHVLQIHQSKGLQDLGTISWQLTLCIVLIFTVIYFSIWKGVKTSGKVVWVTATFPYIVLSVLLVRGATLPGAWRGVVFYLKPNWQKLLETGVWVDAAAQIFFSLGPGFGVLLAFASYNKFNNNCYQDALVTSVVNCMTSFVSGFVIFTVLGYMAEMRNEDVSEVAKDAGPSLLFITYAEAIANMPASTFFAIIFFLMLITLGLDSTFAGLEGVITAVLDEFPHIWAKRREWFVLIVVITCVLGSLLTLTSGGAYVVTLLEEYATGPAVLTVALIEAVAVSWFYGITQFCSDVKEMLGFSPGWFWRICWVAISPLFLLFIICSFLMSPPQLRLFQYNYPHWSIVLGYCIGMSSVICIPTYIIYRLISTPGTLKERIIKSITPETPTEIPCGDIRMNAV
# procedure-summary: Inhibition of 5-HT uptake in synaptosomes
# Type: biochemical
# experimental-parameters: rat, 1 μM
Output y for Uptake_5-HT, rat, 1 μM, % inhibition not less than 60%; output n otherwise.

| compound | class-label |
| --- | --- |
| CCCCN1C(=O)C(CCSC)NC12CCN(C(=O)Nc1ccccc1)CC2 (centres unmarked) | n |
| CCCCOc1ccc(S(=O)(=O)N2CCC3(CC2)NC(Cc2ccccc2)C(=O)N3CC(=O)OCC)cc1 (centres unmarked) | y |
| CCCCN1C(=O)C(C(C)C)NC12CCN(C(=S)Nc1ccccc1F)CC2 (centres unmarked) | n |
| COc1cc(C)c(S(=O)(=O)N2CCC3(CC2)NC(C(C)C)C(=O)N3Cc2ccccc2F)c(C)c1C (centres unmarked) | n |
| CCCCN1C(=O)C(CCSC)NC12CCN(C(=S)Nc1ccc(OCC)cc1)CC2 (centres unmarked) | n |
| C#CCN1C(=O)C(CC(C)C)NC12CCN(C(=S)Nc1cccc(C(C)=O)c1)CC2 (centres unmarked) | n |
| CCC(C)(C)c1ccc(S(=O)(=O)N2CCC3(CC2)NC(CCSC)C(=O)N3Cc2ccccc2)cc1 (centres unmarked) | n |
| CCCCN1C(=O)C(C(C)C)NC12CCN(C(=O)Nc1cc(OC)ccc1OC)CC2 (centres unmarked) | n |
| C=CCN1C(=O)C(C(C)C)NC12CCN(C(=S)Nc1ccc(F)cc1)CC2 (centres unmarked) | n |
| C=CCN1C(=O)C(CCSC)NC12CCN(S(=O)(=O)Cc1ccccc1)CC2 (centres unmarked) | n |
| COc1ccc(OC)c(NC(=O)N2CCC3(CC2)NC(CCSC)C(=O)N3Cc2cccc(C#N)c2)c1 (centres unmarked) | n |
| CCCCN1C(=O)C(Cc2ccccc2)NC12CCN(S(=O)(=O)c1cccc(Cl)c1)CC2 (centres unmarked) | y |
| CCCCN1C(=O)C(CCSC)NC12CCN(S(=O)(=O)c1cccc(C)c1)CC2 (centres unmarked) | y |
| C=CCN1C(=O)C(C(C)C)NC12CCN(C(=O)Nc1ccc(OC(F)(F)F)cc1)CC2 (centres unmarked) | n |
| CCCCN1C(=O)C(Cc2ccccc2)NC12CCN(S(=O)(=O)c1ccc(C(C)(C)CC)cc1)CC2 (centres unmarked) | y |
| COC(=O)c1ccc(CN2C(=O)C(C(C)C)NC23CCN(C(=O)Nc2ccc(Cl)c(C(F)(F)F)c2)CC3)cc1 (centres unmarked) | n |
| CCOc1ccc(NC(=O)N2CCC3(CC2)NC(CCSC)C(=O)N3Cc2ccc(F)cc2)cc1 (centres unmarked) | n |
| O=C1NC2(CCN(S(=O)(=O)c3ccccc3F)CC2)NC1Cc1ccccc1 (centres unmarked) | n |
| O=C1C(Cc2ccccc2)NC2(CCN(C(=S)Nc3c(Cl)cccc3Cl)CC2)N1Cc1ccccc1F (centres unmarked) | n |
| CCCCN1C(=O)C(CCSC)NC12CCN(C(=S)Nc1ccc(F)cc1)CC2 (centres unmarked) | y |
| CSCCC1NC2(CCN(C(=O)Nc3cccc(C#N)c3)CC2)N(Cc2ccc(F)cc2)C1=O (centres unmarked) | n |
| CCOC(=O)CN1C(=O)C(Cc2ccccc2)NC12CCN(S(=O)(=O)c1cccs1)CC2 (centres unmarked) | y |
| CCOC(=O)CN1C(=O)C(Cc2ccccc2)NC12CCN(S(=O)(=O)c1ccccc1S(C)(=O)=O)CC2 (centres unmarked) | y |
| CSCCC1NC2(CCN(C(=O)Nc3ccccc3)CC2)N(Cc2ccccc2C#N)C1=O (centres unmarked) | n |
| CCCCN1C(=O)C(CCSC)NC12CCN(C(=O)Nc1ccc(Cl)c(C(F)(F)F)c1)CC2 (centres unmarked) | n |
| COc1cccc(NC(=O)N2CCC3(CC2)NC(CCSC)C(=O)N3Cc2cccc(C#N)c2)c1 (centres unmarked) | n |
| CCCc1ccc(S(=O)(=O)N2CCC3(CC2)NC(Cc2ccccc2)C(=O)N3CC(=O)OCC)cc1 (centres unmarked) | y |
| COC(=O)c1ccc(CN2C(=O)CNC23CCN(S(=O)(=O)c2c(C)cc(C)cc2C)CC3)cc1 | y |
| CCCCN1C(=O)C(Cc2ccccc2)NC12CCN(S(=O)(=O)c1ccccc1C(F)(F)F)CC2 (centres unmarked) | y |
| CCOc1ccc(NC(=O)N2CCC3(CC2)NC(CCSC)C(=O)N3Cc2ccccc2)cc1 (centres unmarked) | n |
